# Tested system: Melanocyte-stimulating hormone receptor (Mus musculus, UniProt Q01727)
# Sequence (Q01727 whole entry): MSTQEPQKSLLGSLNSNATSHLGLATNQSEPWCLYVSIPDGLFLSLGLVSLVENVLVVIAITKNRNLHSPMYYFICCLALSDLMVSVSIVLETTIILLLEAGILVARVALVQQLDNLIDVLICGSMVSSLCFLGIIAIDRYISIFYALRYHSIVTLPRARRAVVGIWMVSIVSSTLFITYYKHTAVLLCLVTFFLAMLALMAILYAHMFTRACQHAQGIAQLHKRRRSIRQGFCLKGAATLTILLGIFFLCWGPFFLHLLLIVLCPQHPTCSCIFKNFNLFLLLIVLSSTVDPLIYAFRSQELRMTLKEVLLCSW
# Test method notes: Agonist activity at mouse melanocortin-1 receptor transfected in HEK293 cells after 6 hrs by beta-galactosidase reporter gene assay
# Assay type: cell-based
Quantity measured: EC50 (µM)

A selection of reference data follows.
CC(=O)N[C@@H](Cc1c[nH]c2ccccc12)C(=O)N[C@H](Cc1ccc(I)cc1)C(=O)N[C@@H](CCCNC(=N)N)C(=O)N[C@@H](Cc1ccc2ccccc2c1)C(N)=O: 5.5
CC(=O)N[C@@H](Cc1c[nH]c2ccccc12)C(=O)N[C@H](Cc1ccc(I)cc1)C(=O)N[C@@H](CCCNC(=N)N)C(=O)N[C@@H](Cc1ccccc1)C(N)=O: 6.5

(a) CC(=O)N[C@@H](Cc1c[nH]c2ccccc12)C(=O)N[C@H](Cc1ccc(I)cc1)C(=O)N[C@@H](CCCNC(=N)N)C(=O)N1Cc2ccccc2C[C@H]1C(N)=O
(b) CC(=O)N[C@@H](Cc1c[nH]c2ccccc12)C(=O)N[C@H](Cc1ccc(I)cc1)C(=O)N[C@@H](CCCNC(=N)N)C(=O)N[C@@H](Cc1csc2ccccc12)C(N)=O
(c) CCCC[C@H](NC(C)=O)C(=O)N[C@H]1CC(=O)NCCCC[C@@H](C(N)=O)NC(=O)[C@H](Cc2c[nH]c3ccccc23)NC(=O)[C@H](CCCNC(=N)N)NC(=O)[C@@H](Cc2ccc3ccccc3c2)NC(=O)[C@H](Cc2c[nH]cn2)NC1=O
Input line: I would appreciate it if you could sort these 3 compounds by EC50, starting from the smallest number. Reply: labels, ordered per the request.
Output line: c, a, b

Data origin: ChEMBL document CHEMBL3421543
